Listed below: AC50 values for each entry.
# Target entity: 5-hydroxytryptamine receptor 2B (Homo sapiens, UniProt P41595); further: assay procedure not described here
# Sequence (P41595 whole entry): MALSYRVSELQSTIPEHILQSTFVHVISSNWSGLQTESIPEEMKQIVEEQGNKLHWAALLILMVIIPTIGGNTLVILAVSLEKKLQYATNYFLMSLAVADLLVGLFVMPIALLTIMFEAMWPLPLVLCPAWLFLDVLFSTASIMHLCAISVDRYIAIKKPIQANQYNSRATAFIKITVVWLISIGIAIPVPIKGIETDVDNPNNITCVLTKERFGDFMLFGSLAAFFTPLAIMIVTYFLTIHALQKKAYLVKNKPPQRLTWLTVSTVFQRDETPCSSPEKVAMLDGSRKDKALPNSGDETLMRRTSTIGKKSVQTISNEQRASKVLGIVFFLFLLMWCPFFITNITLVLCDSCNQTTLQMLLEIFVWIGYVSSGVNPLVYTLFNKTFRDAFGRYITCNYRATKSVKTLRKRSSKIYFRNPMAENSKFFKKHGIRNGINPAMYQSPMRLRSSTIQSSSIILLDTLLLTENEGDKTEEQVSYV
# Type: functional, cell-based

AC50 for 5-hydroxytryptamine receptor 2B (Homo sapiens, UniProt P41595) with input CN(C)CCCN1c2ccccc2Sc2ccccc21 equals 5.7 µM

AC50 for 5-hydroxytryptamine receptor 2B (Homo sapiens, UniProt P41595) with input CC(=O)O[C@@]12CO[C@@H]1C[C@H](O)[C@@]1(C)C(=O)[C@H](O)C3=C(C)[C@@H](OC(=O)[C@H](O)[C@@H](NC(=O)OC(C)(C)C)c4ccccc4)C[C@@](O)([C@@H](OC(=O)c4ccccc4)[C@H]21)C3(C)C [DOCETAXEL ANHYDROUS] equals > 30 µM

AC50 for 5-hydroxytryptamine receptor 2B (Homo sapiens, UniProt P41595) with input CC(C)Cc1ccc(CC(=O)O)cc1 equals > 30 µM

AC50 for 5-hydroxytryptamine receptor 2B (Homo sapiens, UniProt P41595) with input CC(C)(Oc1ccc(C2CC2(Cl)Cl)cc1)C(=O)O (stereo not given) [CIPROFIBRATE] equals > 30 µM

AC50 for 5-hydroxytryptamine receptor 2B (Homo sapiens, UniProt P41595) with input CN(C)CCCN1c2ccccc2CCc2ccc(Cl)cc21 equals 5.6 µM

AC50 for 5-hydroxytryptamine receptor 2B (Homo sapiens, UniProt P41595) with input COc1ccc2c(c1)c(CC(=O)OCC(=O)O)c(C)n2C(=O)c1ccc(Cl)cc1 equals > 30 µM

AC50 for 5-hydroxytryptamine receptor 2B (Homo sapiens, UniProt P41595) with input CC(C)C(=O)OCC(=O)[C@@]12O[C@H](C3CCCCC3)O[C@@H]1C[C@H]1[C@@H]3CCC4=CC(=O)C=C[C@]4(C)[C@H]3[C@@H](O)C[C@@]12C [CICLESONIDE] equals > 10 µM

AC50 for 5-hydroxytryptamine receptor 2B (Homo sapiens, UniProt P41595) with input CS(=O)(=O)c1ccc([C@@H](O)[C@@H](CO)NC(=O)C(Cl)Cl)cc1 equals > 30 µM

AC50 for 5-hydroxytryptamine receptor 2B (Homo sapiens, UniProt P41595) with input CCCS(=O)(=O)Nc1ccc(F)c(C(=O)c2c[nH]c3ncc(-c4ccc(Cl)cc4)cc23)c1F equals > 30 µM

AC50 for 5-hydroxytryptamine receptor 2B (Homo sapiens, UniProt P41595) with input CCC(C(=O)O)c1ccc(CC(C)C)cc1 (stereo not given) equals > 30 µM

AC50 for 5-hydroxytryptamine receptor 2B (Homo sapiens, UniProt P41595) with input C#C[C@]1(O)CC[C@H]2[C@@H]3CCC4=CCCC[C@@H]4[C@H]3CC[C@@]21C equals > 30 µM

AC50 for 5-hydroxytryptamine receptor 2B (Homo sapiens, UniProt P41595) with input CC(=O)c1ccc2c(c1)N(CCCN1CCN(CCO)CC1)c1ccccc1S2 equals 4.49 µM
